The origin of these recorded values is ChEMBL document CHEMBL3576816.

Below is a list of entries, each paired with its recorded inhibition at 10 µM value.
Test system: Dengue virus
Run Description: Antiviral activity against Dengue virus infected in BHK pD2-hRucPac-2ATG cells assessed as inhibition of viral replication at 10 uM after 3 days by luciferase reporter gene assay relative to control
Assay type: functional
Test Parameters: 72 h

| Compound | Uom | inhibition at 10 µM |
| --- | --- | --- |
| COc1ccc2cc(-c3cnnn3[C@H]3C[C@H](n4cc(C)c(=O)[nH]c4=O)O[C@@H]3CO[Si](C(C)C)(C(C)C)C(C)C)ccc2c1 | % | 98 |
| Cc1cn([C@H]2C[C@H](N3C(=O)CSC3c3ccccc3)[C@@H](CO[Si](C)(C)C(C)(C)C)O2)c(=O)[nH]c1=O (mixture of isomers) | % | 22 |
| COc1ccc2cc(C(=O)N[C@H]3C[C@H](n4cc(C)c(=O)[nH]c4=O)O[C@@H]3CO)ccc2c1 | % | 0 |
| Cc1cn([C@H]2C[C@H](n3nncc3-c3ccccc3)[C@@H](CO[Si](C)(C)C(C)(C)C)O2)c(=O)[nH]c1=O | % | 51 |
